Biological target: Factor X, P00742
Sequence (P00742 whole entry, looked up): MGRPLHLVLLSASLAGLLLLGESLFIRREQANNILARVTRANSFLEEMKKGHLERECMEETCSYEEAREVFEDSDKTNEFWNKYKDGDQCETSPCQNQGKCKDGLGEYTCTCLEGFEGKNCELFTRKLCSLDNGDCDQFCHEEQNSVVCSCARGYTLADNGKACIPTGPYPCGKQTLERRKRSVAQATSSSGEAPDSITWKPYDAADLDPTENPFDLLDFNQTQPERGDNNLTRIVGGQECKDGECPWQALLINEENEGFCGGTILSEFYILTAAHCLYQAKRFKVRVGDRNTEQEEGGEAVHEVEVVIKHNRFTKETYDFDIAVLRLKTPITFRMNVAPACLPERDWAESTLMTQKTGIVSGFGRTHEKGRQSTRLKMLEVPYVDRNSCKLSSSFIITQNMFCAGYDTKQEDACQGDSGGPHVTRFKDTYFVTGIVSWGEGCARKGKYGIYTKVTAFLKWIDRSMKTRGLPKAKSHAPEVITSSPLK
Below, each entry is listed alongside its reported % of WT kcat/KM.
Report the figure in % without appending any unit label.

INSERT INTO assay_data (protein, result_number) VALUES
  ('FIXa-Y155F/R318Y/T343R/R403E/E410N (protein) chain 1: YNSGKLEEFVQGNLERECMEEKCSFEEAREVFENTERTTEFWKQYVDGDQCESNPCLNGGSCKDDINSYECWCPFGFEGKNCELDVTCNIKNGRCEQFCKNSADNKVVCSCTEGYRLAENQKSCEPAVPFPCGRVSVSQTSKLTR chain 2: VVGGEDAKPGQFPWQVVLNGKVDAFCGGSIVNEKWIVTAAHCVETGVKITVVAGEHNIEETEHTEQKRNVIRIIPHHNYNAAINKYNHDIALLELDEPLVLNSYVTPICIADKEYTNIFLKFGSGYVSGWGRVFHKGYSALVLQYLRVPLVDRATCLRSTKFRIYNNMFCAGFHEGGRDSCQGDSGGPHVTEVEGTSFLTGIISWGEECAMKGKYGIYTKVSEYVNWIKNKTKLT', 571);

Now consider the entry below.
Data request: // returns reported % of WT kcat/KM for input FIXa-K228N/K247N/N249S/R318Y/R338E/T343R/R403E/E410N (protein) chain 1: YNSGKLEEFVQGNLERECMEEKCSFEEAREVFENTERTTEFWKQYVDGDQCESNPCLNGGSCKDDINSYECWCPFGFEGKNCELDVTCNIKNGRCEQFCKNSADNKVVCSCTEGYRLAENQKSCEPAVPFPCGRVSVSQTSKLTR chain 2: VVGGEDAKPGQFPWQVVLNGKVDAFCGGSIVNEKWIVTAAHCVETGVNITVVAGEHNIEETEHTEQNRSVIRIIPHHNYNAAINKYNHDIALLELDEPLVLNSYVTPICIADKEYTNIFLKFGSGYVSGWGRVFHKGYSALVLQYLRVPLVDRATCLESTKFRIYNNMFCAGFHEGGRDSCQGDSGGPHVTEVEGTSFLTGIISWGEECAMKGKYGIYTKVSEYVNWIKNKTKLT
Data returned: 880
